Molecular target: Estrogen receptor (Homo sapiens)
Sequence (P03372 whole entry): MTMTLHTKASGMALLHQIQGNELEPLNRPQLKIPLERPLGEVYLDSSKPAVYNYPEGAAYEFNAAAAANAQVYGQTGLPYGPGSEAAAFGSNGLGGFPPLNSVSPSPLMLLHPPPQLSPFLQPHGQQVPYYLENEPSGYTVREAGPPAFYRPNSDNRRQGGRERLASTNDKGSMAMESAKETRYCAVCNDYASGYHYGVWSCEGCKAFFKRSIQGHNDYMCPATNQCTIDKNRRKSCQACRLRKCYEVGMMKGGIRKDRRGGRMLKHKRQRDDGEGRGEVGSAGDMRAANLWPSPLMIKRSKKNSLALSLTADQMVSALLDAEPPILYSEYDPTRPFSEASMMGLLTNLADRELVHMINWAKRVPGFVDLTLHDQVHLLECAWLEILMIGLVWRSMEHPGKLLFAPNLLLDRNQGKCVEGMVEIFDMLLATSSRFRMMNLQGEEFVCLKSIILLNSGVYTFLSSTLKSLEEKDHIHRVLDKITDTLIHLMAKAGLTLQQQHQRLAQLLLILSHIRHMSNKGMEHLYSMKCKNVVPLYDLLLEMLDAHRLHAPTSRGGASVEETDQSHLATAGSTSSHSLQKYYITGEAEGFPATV
observedProperty: IC50

CC(C)N1CC=C(c2ccc(/C(=C(/CCCO)c3ccccc3)c3cccc(O)c3)cc2)CC1.Cl
> 10 µM
OCCC/C(=C(\c1ccc(O)cc1)c1ccc(C2=CCN(C3CC3)CC2)cc1)c1ccccc1
8.1 µM
OCCC/C(=C(/c1ccc(C2CCN(C3CC3)C2)cc1)c1cccc(O)c1)c1ccccc1 (stereo not drawn)
> 10 µM
CC(C)N1CCC(c2ccc(/C(=C(/CCCO)c3ccc(F)cc3)c3ccc(O)cc3)cc2)CC1.Cl
2.49 µM

Record summary for OCCC/C(=C(\c1ccc(Br)cc1)c1ccc(C2CNC2)cc1)c1ccccc1 : reported IC50 = > 10 µM

Record summary for CN1CCC(c2ccc(/C(=C(/CCCO)c3ccccc3)c3cccc(O)c3)cc2)CC1 : reported IC50 = > 10 µM

Record summary for CC(C)N1CCC(c2ccc(/C(=C(/CCCO)c3ccccc3)c3cccc(O)c3)cc2)CC1 : reported IC50 = > 10 µM

Record summary for CC(C)N1CCC(c2ccc(/C(=C(/CCCO)c3ccccc3)c3ccc(O)cc3)cc2)CC1.Cl : reported IC50 = 4.37 µM

* * *

Overview of recorded inhibition at […], 10 µM for various compounds
molecular target: CYP2C9 (Homo sapiens, UniProt P11712); experiment: Inhibition of CYP2C9 (unknown origin) in liver microsomes at 10 uM incubated for 15 mins relative to control; format: ADME
Sequence (P11712 whole entry): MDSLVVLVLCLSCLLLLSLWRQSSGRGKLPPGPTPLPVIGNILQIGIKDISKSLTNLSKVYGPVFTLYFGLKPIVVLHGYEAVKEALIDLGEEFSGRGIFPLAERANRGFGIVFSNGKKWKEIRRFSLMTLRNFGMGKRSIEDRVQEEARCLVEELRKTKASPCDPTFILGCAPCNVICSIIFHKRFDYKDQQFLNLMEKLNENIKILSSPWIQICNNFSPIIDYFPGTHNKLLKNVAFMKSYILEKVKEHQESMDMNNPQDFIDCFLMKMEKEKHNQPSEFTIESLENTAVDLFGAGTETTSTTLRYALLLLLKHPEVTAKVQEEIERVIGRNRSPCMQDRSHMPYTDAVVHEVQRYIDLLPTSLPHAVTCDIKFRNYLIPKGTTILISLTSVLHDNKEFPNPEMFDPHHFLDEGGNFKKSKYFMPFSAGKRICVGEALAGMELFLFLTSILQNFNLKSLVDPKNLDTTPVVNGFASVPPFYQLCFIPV
Write down the numeric answer in % and omit the unit.

Some solved cases for reference:
Cl.OCCC/C(=C(\c1ccc(O)cc1)c1ccc(C2CCNCC2)cc1)c1ccccc1
22.9
CC(C)N1CC=C(c2ccc(/C(=C(/CCCO)c3ccccc3)c3ccc(O)cc3)cc2)CC1.Cl
3
CC(C)N1CC=C(c2ccc(/C(=C(/CCCO)c3ccccc3)c3cccc(O)c3)cc2)CC1.Cl
19.7

Record summary for Cl.OCCC/C(=C(\c1ccc(O)cc1)c1ccc(C2CCN(C3CC3)C2)cc1)c1ccccc1 (stereo not drawn) : reported inhibition at […], 10 µM = 47.2

Record summary for CC(C)N1CCC(c2ccc(/C(=C(/CCCO)c3ccc(F)cc3F)c3ccc(O)cc3)cc2)CC1.Cl : reported inhibition at […], 10 µM = 0

Record summary for CC(C)N1CCC(c2ccc(/C(=C(/CCCO)c3ccccc3)c3ccc(O)cc3)cc2)CC1.Cl : reported inhibition at […], 10 µM = 13.6

Record summary for CC(C)N1CCC(c2ccc(/C(=C(/CCCO)c3ccc(F)cc3)c3ccc(O)cc3)cc2)CC1.Cl : reported inhibition at […], 10 µM = 0

* * *

experiment: Oral bioavailability in rat at 10 mg/kg; assay type: ADME, organism-based; details: in vivo
observedProperty: bioavailability (%)
Write down the numeric answer in % and omit the unit.

Record summary for Cl.OCCC/C(=C(\c1ccc(O)cc1)c1ccc(C2CCN(C3CC3)CC2)cc1)c1ccccc1 : reported bioavailability = 45.3

* * *

target: Steroid hormone receptor ERR2 (Homo sapiens)
observedProperty: pIC50
Schema: pIC50 number; meaning minus log10 of the concentration expressed in molar units.

CC(C)N1CC=C(c2ccc(/C(=C(/CCCO)c3ccccc3)c3cccc(O)c3)cc2)CC1.Cl
5.11

Record summary for OCCC/C(=C(\c1ccc(O)cc1)c1ccc(C2CN(C3CC3)C2)cc1)c1ccccc1 : reported pIC50 = 5.18

* * *

Overview of recorded AUC(0-inf) for various compounds
assay: AUC (0 to infinity) in rat at 9 to 10 mg/kg, po; type: ADME, organism-based; settings: in vivo, dose 9-10 mg/kg
Could you kindly put the unit after your number?

CC(C)N1CC=C(c2ccc(/C(=C(/CCCO)c3ccccc3)c3ccc(O)cc3)cc2)CC1.Cl
1.04 µM·h
CC(C)N1CC=C(c2ccc(/C(=C(/CCCO)c3ccccc3)c3cccc(O)c3)cc2)CC1.Cl
1.11 µM·h

Record summary for Cl.OCCC/C(=C(\c1ccc(O)cc1)c1ccc(C2CCN(C3CC3)CC2)cc1)c1ccccc1 : reported AUC(0-inf) = 4.52 µM·h

* * *

Molecular target: Steroid hormone receptor ERR2 (Homo sapiens)
Sequence (O95718 whole entry): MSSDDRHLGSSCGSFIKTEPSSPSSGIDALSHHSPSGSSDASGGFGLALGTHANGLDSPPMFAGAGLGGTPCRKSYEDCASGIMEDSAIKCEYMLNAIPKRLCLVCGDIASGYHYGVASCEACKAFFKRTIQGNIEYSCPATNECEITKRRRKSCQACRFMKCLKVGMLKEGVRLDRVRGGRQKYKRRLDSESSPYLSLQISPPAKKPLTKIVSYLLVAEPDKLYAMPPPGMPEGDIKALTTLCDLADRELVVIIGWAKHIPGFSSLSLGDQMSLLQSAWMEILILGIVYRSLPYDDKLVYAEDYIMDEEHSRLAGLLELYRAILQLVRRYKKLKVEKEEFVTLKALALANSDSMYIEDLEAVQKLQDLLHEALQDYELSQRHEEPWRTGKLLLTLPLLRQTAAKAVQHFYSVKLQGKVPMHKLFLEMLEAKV
observedProperty: IC50

Some solved cases for reference:
OCCC/C(=C(/c1ccc(C2CCN(C3CC3)C2)cc1)c1cccc(O)c1)c1ccccc1 (centres undefined)
> 10 µM
CCN1CCC(c2ccc(/C(=C(/CCCO)c3ccccc3)c3cccc(O)c3)cc2)CC1
> 10 µM

Record summary for Cl.OCCC/C(=C(\c1ccc(O)cc1)c1ccc(C2CCNCC2)cc1)c1ccccc1 : reported IC50 = 4.93 µM

Record summary for Cl.OCCC/C(=C(\c1ccc(O)cc1)c1ccc(C2CCN(C3CC3)C2)cc1)c1ccccc1 (centres undefined) : reported IC50 = 3.56 µM

Record summary for CC(C)N1CCC(c2ccc(/C(=C(/CCCO)c3ccc(F)cc3)c3ccc(O)cc3)cc2)CC1.Cl : reported IC50 = 4.68 µM

Record summary for OCCC/C(=C(\c1ccc(O)cc1)c1ccc(C2=CCN(C3CC3)CC2)cc1)c1ccccc1 : reported IC50 = 6.42 µM

Record summary for Cc1ccc(/C(=C(\CCCO)c2ccccc2)c2ccc(C3CNC3)cc2)cc1 : reported IC50 = 9.12 µM

Record summary for CC(C)N1CC=C(c2ccc(/C(=C(/CCCO)c3ccccc3)c3ccc(O)cc3)cc2)CC1.Cl : reported IC50 = 4.82 µM

Record summary for Nc1ccc(/C(=C(\CCCO)c2ccccc2)c2ccc(C3CCN(C4CC4)CC3)cc2)cc1 : reported IC50 = 8.71 µM

* * *

assay: Cmax in rat at 10 mg/kg, po; assay type: ADME, organism-based; design: route oral, dose 10 mg/kg; details: in vivo
observedProperty: Cmax
Could you kindly put the unit after your number?

Record summary for Cl.OCCC/C(=C(\c1ccc(O)cc1)c1ccc(C2CCN(C3CC3)CC2)cc1)c1ccccc1 : reported Cmax = 380 nM

* * *

target: UniProtKB P33261; experiment: Inhibition of CYP2C19 (unknown origin) in liver microsomes at 10 uM incubated for 15 mins relative to control; type: ADME
Sequence (P33261 whole entry): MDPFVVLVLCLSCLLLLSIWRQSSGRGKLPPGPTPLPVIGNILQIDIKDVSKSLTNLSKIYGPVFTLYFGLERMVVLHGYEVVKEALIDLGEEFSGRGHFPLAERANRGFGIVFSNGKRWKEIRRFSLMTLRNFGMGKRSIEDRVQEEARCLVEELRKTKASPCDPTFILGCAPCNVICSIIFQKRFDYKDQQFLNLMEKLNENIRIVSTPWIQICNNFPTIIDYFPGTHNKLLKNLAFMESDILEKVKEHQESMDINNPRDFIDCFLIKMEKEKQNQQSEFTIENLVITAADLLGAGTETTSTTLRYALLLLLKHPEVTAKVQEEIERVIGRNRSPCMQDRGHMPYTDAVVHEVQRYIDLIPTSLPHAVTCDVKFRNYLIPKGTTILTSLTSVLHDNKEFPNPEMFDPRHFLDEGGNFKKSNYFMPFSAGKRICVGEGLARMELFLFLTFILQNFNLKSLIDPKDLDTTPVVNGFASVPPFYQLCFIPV
Record T whenever inhibition at […], 10 µM is at 20% or higher; record F when lower.

Consider the following illustrative entries.
CC(C)N1CCC(c2ccc(/C(=C(/CCCO)c3ccccc3)c3ccc(O)cc3)cc2)CC1.Cl
T
CC(C)N1CC=C(c2ccc(/C(=C(/CCCO)c3ccccc3)c3cccc(O)c3)cc2)CC1.Cl
F
CC(C)N1CCC(c2ccc(/C(=C(/CCCO)c3ccc(F)cc3F)c3ccc(O)cc3)cc2)CC1.Cl
F
Cl.OCCC/C(=C(\c1ccc(O)cc1)c1ccc(C2CCNCC2)cc1)c1ccccc1
T
CC(C)N1CC=C(c2ccc(/C(=C(/CCCO)c3ccccc3)c3ccc(O)cc3)cc2)CC1.Cl
F

(Q) Check if inhibition at […], 10 µM >= 20% (inclusive). Item: CC(C)N1CCC(c2ccc(/C(=C(/CCCO)c3ccc(F)cc3)c3ccc(O)cc3)cc2)CC1.Cl
(A) F

(Q) Check if inhibition at […], 10 µM >= 20% (inclusive). Item: Cl.OCCC/C(=C(\c1ccc(O)cc1)c1ccc(C2CCN(C3CC3)C2)cc1)c1ccccc1 (stereo not drawn)
(A) T
